test: Volatility of perfuming compounds (Tables 4 to 10), with top/middle/bottom note type; type: physicochemical; conditions: Table 6, perfuming compounds having a fruity note
Endpoint: Volatility (μg/l air)
Respond numerically; units are μg/l air and should not be typed.

Q: Look up Volatility for this compound: C/C=C/c1ccc(OC)cc1 [1-methoxy-4-[(1E)-1-propen-1-yl]benzene]
Result: 184.60

Q: Proceed to CC(=O)OC(C)(C)Cc1ccccc1 [1,1-DIMETHYL-2-PHENYLETHYL ACETATE]
Result: 198.02

Q: Proceed to C=CC(CCCCC)OC(C)=O (racemic) [(+−)-1-PENTYL-2-PROPENYL ACETATE]
Result: 1506.95

Q: Proceed to C=CCCC(=O)C1=CCCC(C)(C)C1
Result: 38.43

Q: Proceed to CC(=O)CCC=C(C)C
Result: 5775.94

Q: Proceed to CCC(C)C(=O)OC(C)C (racemic) [(+−)-ISOPROPYL 2-METHYLBUTANOATE]
Result: 51367.63

Q: Proceed to C=CCOC(=O)CCC1CCCCC1 [ALLYL 3-CYCLOHEXYLPROPANOATE]
Result: 75.80

Q: Proceed to CCCCCC(C)=O
Result: 26409.73

Q: Proceed to C[C@H]1[C@@H]2C[C@H](C[C@@]13C=CC(=O)CC3)C2(C)C
Result: 4.14

Q: Proceed to C=C1CCCC(C)(C)C1C(=O)/C=C/C (racemic)
Result: 152.99

Q: Proceed to CC(=O)OCCC(C)CC(C)(C)C (stereo not shown) [3,5,5-TRIMETHYLHEXYL ACETATE]
Result: 1461.80

Q: Proceed to CC1=C[C@H](C)[C@H]2[C@H](CCC(C)(C)[C@H]2O)C1 (racemic)
Result: 48.90

Q: Proceed to CCCCCCCC1CCCC(=O)O1 (racemic) [(+−)-6-heptyltetrahydro-2H-pyran-2-one]
Result: 0.90

Q: Proceed to CCCC(=O)OCC [ETHYL BUTANOATE]
Result: 142519.74

Q: Proceed to CCCCCC/C(C=O)=C\c1ccccc1
Result: 1.15

Q: Proceed to C=CC(C)=CCC=C(C)C
Result: 3480.57

Q: Proceed to CC/C=C\C[C@H]1C(=O)CC[C@@H]1CC(=O)OC (racemic)
Result: 1.59

Q: Proceed to C=CCCCCCCCCO
Result: 26.88

Q: Proceed to CC(O)c1ccccc1 (stereo not shown)
Result: 470.00

Q: Proceed to CC1(C)C2CC[C@@]1(C)C(=O)C2 (single isomer, unassigned; (+))
Result: 555.04

Q: Proceed to CC1COCc2cc3c(cc21)C(C)(C)C(C)C3(C)C (racemic)
Result: 1.59

Q: Proceed to CCCCCCC1CCC(=O)O1 (racemic) [(+−)-4-DECANOLIDE]
Result: 10.49

Q: Proceed to CCC/C=C/C=O
Result: 33708.26

Q: Proceed to CC/C=C\CCOC(=O)C(C)C [(Z)-3-HEXENYL ISOBUTYRATE]
Result: 1073.97

Q: Proceed to CCC(=O)OCC(C)(C)OC(C)C1CCCC(C)(C)C1 (single isomer, unassigned; (+))
Result: 4.39
